- Procedure Details: Area under the curve after dosing 2 mg/kg iv and 10 mg/kg po
- Format: ADME, organism-based
- Condition: rat, in vivo
Readout Name: AUC (µM·h)
Report as a plain number; the unit µM·h is understood.

Reported AUC, compound N#Cc1cc(F)cc(-n2nnc(-c3ccccn3)n2)c1 : ____
9.6

====

- Procedure Details: Plasma clearance after dosing 2 mg/kg iv and 10 mg/kg po
- Type: ADME, organism-based
- Condition: rat
Readout Name: clearance
Numeric answer plus unit only.

Reported clearance, compound N#Cc1cc(F)cc(-n2nnc(-c3ccccn3)n2)c1 : ____
15 mL/min/kg

====

The following are reported log10 Ki results, target or system Metabotropic glutamate receptor 5 (Rattus norvegicus, UniProt P31424).
All values: base-10 log of Ki in nM.

Below, 4 compounds whose answers are already recorded.
• Fc1cc(Oc2cccnc2)cc(-n2nnc(-c3ncc[nH]3)n2)c1 = 0.51
• N#Cc1cccc(-n2nnc(-c3nccs3)n2)c1 = 2.26
• N#Cc1cc(F)cc(-n2nnc(-c3ncc[nH]3)n2)c1 = 0.97
• N#Cc1cccc(-n2nnc(-c3ccccn3)n2)c1 = 2.01

Reported log10 Ki, compound Cc1c[nH]c(-c2nnn(-c3cc(F)cc(C#N)c3)n2)n1 : ____
1.28

====

Reported Activity by item:
- Test Target: Cytochrome P450 1A2 (Homo sapiens)
- Sequence (P05177 whole entry): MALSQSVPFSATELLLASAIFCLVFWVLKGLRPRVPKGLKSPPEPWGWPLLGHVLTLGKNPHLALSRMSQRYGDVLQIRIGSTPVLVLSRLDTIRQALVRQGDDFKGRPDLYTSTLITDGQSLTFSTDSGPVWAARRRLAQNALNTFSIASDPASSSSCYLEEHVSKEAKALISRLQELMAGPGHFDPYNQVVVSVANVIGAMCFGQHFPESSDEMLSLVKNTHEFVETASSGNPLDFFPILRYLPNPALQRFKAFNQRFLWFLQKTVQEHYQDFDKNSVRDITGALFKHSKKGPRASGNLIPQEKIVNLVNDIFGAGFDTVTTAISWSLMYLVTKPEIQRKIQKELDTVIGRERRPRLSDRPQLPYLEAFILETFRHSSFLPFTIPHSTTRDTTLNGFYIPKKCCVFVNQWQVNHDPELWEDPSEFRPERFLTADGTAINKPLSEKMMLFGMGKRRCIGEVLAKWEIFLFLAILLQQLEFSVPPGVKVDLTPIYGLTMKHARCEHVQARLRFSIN
- Procedure Details: Antagonistic activity against recombinant cytochrome P450 1A2
- Type: ADME
- Condition: recombinant enzyme
Report as a plain number; the unit µM is understood.

Below, 2 compounds whose answers are already recorded.
- N#Cc1cc(F)cc(-n2nnc(-c3ccccn3)n2)c1: 2.3
- Fc1cc(Oc2cccnc2)cc(-n2nnc(-c3ncc[nH]3)n2)c1: 5.1

Reported Activity, compound Cc1ccncc1-c1cc(F)cc(-n2nnc(-c3ccccn3)n2)c1 : ____
0.5
